Reported composite z-score values for a set of compounds
# ASSAY INFO: small-molecule microarray binders of probe aEGFR, primary screen, biochemical, biotinylated probe, 635/667 nm fluorescence (AID 1097);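 note: probe is a biotinylated anti-EGFR antibody binding compounds printed on slides; score combines fluorescence near 667 nm and signal to noise of each spot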
# ASSAY CONTEXT: higher = more signal

>  <COMPOUND>
O=C1N[C@@H](Cc2ccccc2)C(=O)N2[C@@H]1C[C@@H](C(=O)O)[C@H]2c1cccc(OCCO)c1

>  <composite z-score>
-0.071

$$$$
>  <COMPOUND>
[N-]=[N+]=Nc1ccccc1[C@H]1OC(c2ccc(OCCCO)cc2)=N[C@@]1(CCS(=O)(=O)c1ccccc1)C(N)=O

>  <composite z-score>
0.401

$$$$
>  <COMPOUND>
CC(C)[Si]1(C(C)C)O[C@@H](c2ccccc2)c2cc(-c3ccc(-c4ccc(Cl)c(Cl)c4)o3)nc(-c3ccccc3)c21

>  <composite z-score>
-0.108

$$$$
>  <COMPOUND>
COc1ccc(C(O)C2C=CC3C(=O)N(Cc4ccccc4)C(=O)C3N2n2cnnc2)cc1OCc1ccccc1 (centres undefined)

>  <composite z-score>
-0.0512

$$$$
